Molecular target: GK-GKRP (interaction between glucokinase and glucokinase regulatory protein) (Homo sapiens, UniProt Q14397)
Construct: made in house; host or cells: GKRP: baculovirus system
Sequence (Q14397 1-625): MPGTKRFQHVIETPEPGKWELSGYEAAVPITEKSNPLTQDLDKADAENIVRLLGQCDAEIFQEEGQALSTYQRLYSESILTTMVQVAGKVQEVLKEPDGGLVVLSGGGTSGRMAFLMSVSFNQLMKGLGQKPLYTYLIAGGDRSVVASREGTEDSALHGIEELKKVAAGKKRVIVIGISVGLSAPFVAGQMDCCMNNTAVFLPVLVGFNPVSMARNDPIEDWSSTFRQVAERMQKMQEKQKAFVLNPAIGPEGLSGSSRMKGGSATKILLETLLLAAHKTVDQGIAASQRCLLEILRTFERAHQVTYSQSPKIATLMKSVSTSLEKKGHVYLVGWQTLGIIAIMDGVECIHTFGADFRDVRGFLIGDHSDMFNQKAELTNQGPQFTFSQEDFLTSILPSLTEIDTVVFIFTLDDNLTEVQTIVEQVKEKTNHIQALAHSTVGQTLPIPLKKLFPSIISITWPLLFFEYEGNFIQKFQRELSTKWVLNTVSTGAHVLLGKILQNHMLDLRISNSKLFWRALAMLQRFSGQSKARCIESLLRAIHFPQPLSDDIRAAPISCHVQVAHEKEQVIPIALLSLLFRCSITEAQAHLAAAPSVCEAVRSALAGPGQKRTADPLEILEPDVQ
Assay: GK-GKRP Binding Assay (Binding), AlphaScreen
Conditions: avi-tagged GKRP, GK-fluorescein, AlphaScreen beads, 1 μM sorbitol-6-phosphate; read-out: GK-GKRP IC50 (Binding)
pIC50: −log10 of the molar value.
PROPERTY_LABEL: pIC50

Below: 5 compounds and their reported pIC50.
COc1ccc(S(=O)(=O)N[C@@H](c2cc3cccc(-c4cc([C@](C)(O)C(F)(F)F)ccn4)c3s2)c2ccccc2Cl)cc1OC | 7.14
COc1cccnc1C(NS(=O)(=O)c1ccc2c(c1)OCCCO2)c1cc2ccccc2s1 (racemic) | 7.39
O=S(=O)(NC(c1ccccc1)c1cc2cccnc2s1)c1ccc2c(c1)OCCCO2 (racemic) | 6.44
O=S(=O)(NC(c1nc2cccnc2s1)c1ccccc1Cl)c1ccc2c(c1)OCCCO2 (racemic) | 7.27
CSc1ccccc1[C@H](NS(=O)(=O)c1ccc2c(c1)OCCCO2)c1cc2ccncc2s1 (single isomer, unassigned) [Example 64 Peak #1] | 6.37

P. COc1ccccc1C(NS(=O)(=O)c1ccc2c(c1)OCCCO2)c1cc2ccncc2s1 (racemic)
Q. COc1ccccc1C(NS(=O)(=O)c1ccc2c(c1)OCCCO2)c1cc2ccccc2o1 (racemic)
Compare pIC50: is it lower for P or for Q ? Answer format: the label of the selected item.
Q

----------
molecular target: GK-GKRP (glucokinase / glucokinase regulatory protein) (Homo sapiens); assay: GKRP LC MS/MS Biochemical Assay (LCMS/MS); conditions: formation of 13C-glucose-6-phosphate from 13C-glucose by LC MS/MS, human His-hepatic GK, fructose-6-phosphate
pEC50: −log10 of the molar value.
PROPERTY_LABEL: pEC50

Below: 8 compounds and their reported pEC50.
CSc1ccccc1[C@H](NS(=O)(=O)c1ccc2c(c1)OCCCO2)c1cc2ccccc2s1 (single isomer, unassigned) [Example 41 Peak #1] | 7.40
CSc1ccccc1C(NS(=O)(=O)c1ccc2c(c1)OCCO2)c1cc2ccccc2s1 (racemic) | 6.47
O=S(=O)(NC(c1ccccc1)c1cc2cccc(-c3ccccn3)c2s1)c1ccc2c(c1)OCCCO2 (racemic) | 6.54
CSc1ccccc1C(NS(=O)(=O)c1ccc2c(c1)OCCCO2)c1nc2ccccc2s1 (racemic) | 7.54
O=S(=O)(NC(c1cc2ccccc2o1)c1ccccc1F)c1ccc2c(c1)OCCCO2 (racemic) | 6.35
O=S(=O)(N[C@@H](c1nc2cccnc2s1)c1ccccc1Cl)c1ccc2c(c1)OCCCO2 (single isomer, unassigned) [Example 68 Peak #2] | 7.54
O=S(=O)(NC(c1ccccc1)c1nc2ccccc2s1)c1ccc2c(c1)OCCCO2 (racemic) | 6.52
COc1ccccc1[C@@H](NS(=O)(=O)c1ccc2c(c1)OCCCO2)c1cc2ccccc2o1 (single isomer, unassigned) [Example 17 Peak #2] | 7.28

I. C[C@](O)(c1ccnc(-c2cccc3cc([C@@H](NS(=O)(=O)c4ccc5c(c4)OCCCO5)c4ccccc4)sc23)c1)C(F)(F)F (single isomer, unassigned) [Example 70 Peak #4]
II. O=S(=O)(N[C@@H](c1cc2ccccc2o1)c1ccccc1Cl)c1ccc2c(c1)OCCCO2 (single isomer, unassigned) [Example 20 Peak #2]
III. Cc1ccc(F)cc1C(NS(=O)(=O)c1ccc2c(c1)OCCCO2)c1cc2ccccc2o1 (racemic)
IV. O=S(=O)(NC(c1ccccc1)c1cc2cccnc2s1)c1ccc2c(c1)OCCCO2 (racemic)
V. Cc1cccc(F)c1C(NS(=O)(=O)c1ccc2c(c1)OCCCO2)c1cc2ccccc2o1 (racemic)
Sort by pEC50, descending. Lab note: record answer as labels in requested order.
II, I, IV, III, V
(II: 7.52, I: 7.13, IV: 6.66, III: 6.34, V: 6.10)

----------
target: GK-GKRP (interaction between glucokinase and glucokinase regulatory protein) (Homo sapiens, UniProt Q14397); construct: made in house; host or cells: GKRP: baculovirus system; test: GK-GKRP Binding Assay (Binding), AlphaScreen; details: avi-tagged GKRP, GK-fluorescein, AlphaScreen beads, 1 μM sorbitol-6-phosphate; read-out: GK-GKRP IC50 (Binding)
PROPERTY_LABEL: IC50 (µM)

O=S(=O)(N[C@@H](c1ccccc1)c1cc2cccc(-c3ccccn3)c2s1)c1ccc2c(c1)OCCCO2 (single isomer, unassigned) [Example 71 Peak #1] | 0.79
O=S(=O)(NC(c1ccccc1)c1cc2cccc(Cl)c2s1)c1ccc2c(c1)OCCCO2 (racemic) | 1
O=S(=O)(NC(c1ccccc1)c1cc2cccc(-c3ccccc3)c2s1)c1ccc2c(c1)OCCCO2 (racemic) | 1.2
CC(C)c1ccccc1C(NS(=O)(=O)c1ccc2c(c1)OCCCO2)c1cc2ccccc2o1 (racemic) | 1.1
O=S(=O)(NC(c1ccccc1)c1cc2ncccc2s1)c1ccc2c(c1)OCCCO2 (racemic) | 2.3
C=Cc1ccccc1C(NS(=O)(=O)c1ccc2c(c1)OCCCO2)c1cc2ccccc2o1 (racemic) | 0.098
O=S(=O)(N[C@@H](c1ccccc1)c1cc2ccccc2s1)c1ccc2c(c1)OCCCO2 (single isomer, unassigned) [Example 57 Peak #1] | 3
COc1ccc(S(=O)(=O)N[C@@H](c2cc3cccc(-c4cc([C@@](C)(O)C(F)(F)F)ccn4)c3s2)c2ccccc2Cl)cc1OC | 0.276

A. C[C@@](O)(c1ccnc(-c2cccc3cc([C@H](NS(=O)(=O)c4ccc5c(c4)OCCCO5)c4ccccc4Cl)sc23)c1)C(F)(F)F
B. CSc1ccccc1C(NS(=O)(=O)c1ccc2c(c1)OCCCO2)c1nc2ccccc2s1 (racemic)
C. COc1ccccc1[C@H](NS(=O)(=O)c1ccc2c(c1)OCCCO2)c1nc2cccnc2s1 (single isomer, unassigned) [Example 67 Peak #1]
D. O=S(=O)(NC(c1cc2ccccc2o1)c1ccccc1Cl)c1ccc2c(c1)OCCCO2 (racemic)
E. O=S(=O)(N[C@@H](c1cc2ccccc2o1)c1ccccc1Cl)c1ccc2c(c1)OCCCO2 (single isomer, unassigned) [Example 20 Peak #2]
Please put the entries in order of rising IC50. Lab note: record answer as labels in requested order.
B, A, E, D, C
(B: 0.006 µM, A: 0.038 µM, E: 0.078 µM, D: 0.22 µM, C: 2.8 µM)

----------
target: GK-GKRP (interaction between glucokinase and glucokinase regulatory protein) (Homo sapiens, UniProt Q14397); construct: made in house; host or cells: GKRP: baculovirus system; assay: GK-GKRP Binding Assay (Binding), AlphaScreen; settings: avi-tagged GKRP, GK-fluorescein, AlphaScreen beads, 1 μM sorbitol-6-phosphate; read-out: GK-GKRP IC50 (Binding)
pIC50: −log10 of the molar value.
PROPERTY_LABEL: pIC50

Below: 2 molecules and their reported pIC50.
CCc1ccccc1[C@@H](NS(=O)(=O)c1ccc2c(c1)OCCCO2)c1cc2ccccc2o1 (single isomer, unassigned) [Example 6 Peak #2] | 6.96
Nc1cc(C(NS(=O)(=O)c2ccc3c(c2)OCCCO3)c2cc3ccccc3o2)ccn1 (stereo not shown) | 5.31

A. CCCc1ccccc1C(NS(=O)(=O)c1ccc2c(c1)OCCCO2)c1cc2ccccc2o1 (racemic)
B. O=S(=O)(N[C@H](c1cc2ccccc2o1)c1ccccc1Br)c1ccc2c(c1)OCCCO2 (single isomer, unassigned) [Example 22 Peak #1]
C. CSc1ccccc1[C@@H](NS(=O)(=O)c1ccc2c(c1)OCCCO2)c1cc2ccccc2o1 (single isomer, unassigned) [Example 19 Peak #2]
D. CSc1ccccc1[C@@H](NS(=O)(=O)c1ccc2c(c1)OCCCO2)c1nc2cccnc2s1 (single isomer, unassigned) [Example 65 Peak #2]
E. CSc1ccccc1C(NS(=O)(=O)c1ccc2c(c1)OCCCO2)c1cc2ccccc2o1 (racemic)
Please put the entries in order of rising pIC50. Lab note: record answer as labels in requested order.
B, A, E, C, D

Origin of measurements: patent US20140155415A1
